- Test system: Klebsiella pneumoniae
- assay.details: Antibacterial activity against Klebsiella pneumoniae assessed as growth inhibition at 25 ug/well after 24 hrs by agar well diffusion method
- Format: functional
- stated.conditions: read-out: DIZ
Entries and their zone of inhibition at 25 µg/disc
assay.metric: zone of inhibition at 25 µg/disc (mm)

> print(dat)
                           molecular.string                      assay.metric  endpoint.result
1  c1ccc(-c2coc(Nc3cc(-c4ccccc4)n(-c4nc(-c5ccccc5)cs4)n3)n2)cc1  zone of inhibition at 25 µg/disc                8
2  c1ccc(-c2c[nH]c(Nc3cc(-c4ccccc4)n(-c4nc(-c5ccccc5)cs4)n3)n2)cc1  zone of inhibition at 25 µg/disc               28
3  NC(=S)n1nc(Nc2nc(-c3ccccc3)c[nH]2)cc1-c1ccccc1  zone of inhibition at 25 µg/disc               19
4  NC(=S)n1nc(Nc2nc(-c3ccccc3)co2)cc1-c1ccccc1  zone of inhibition at 25 µg/disc                7
